testSummary: reduction of polyQ htt aggregates in cells – imaging, exon1htt(103Q)mCFP cells, high-content imaging, primary screen (AID 483);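 note: compound exposure lasted 3 days before fixation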
statedConditions: exon1htt(103Q)mCFP cell line, aggregate imaging, at 2 µM; hits give high values
inhibition of aggregation overview
Entry rule: numbers only, all in %.

# example entries with known answers
>>> recordedresult("Cn1c(C(=O)OC(C(=O)NC2CCCC2)c2cccnc2)cc2sccc21 (stereo unspecified)")
9.5
>>> recordedresult("CCN(CC(=O)Nc1ccc2c(c1)CCC2)Cc1nc2ccccc2c(=O)[nH]1")
-17.4
>>> recordedresult("O=C(Nc1ccccc1Cl)c1c(F)c(F)c(F)c(F)c1F")
2.9

So, CCOc1ccc(/C=N/n2cnnc2)cc1 ? Its inhibition of aggregation was -4.7

So, Cc1ncc(CO)c2c1OC(C)(C)OC2 ? Its inhibition of aggregation was -26.3

So, CCC(C(=O)NC(C)CCc1ccco1)n1nc(C)n2c(cc3occc32)c1=O (stereo unspecified) ? Its inhibition of aggregation was -13.2

So, O=c1c2[nH]c3ccc(Cl)cc3c2ncn1Cc1ccccn1 ? Its inhibition of aggregation was -30.4

So, O=C(CN(CC1CCCO1)S(=O)(=O)c1ccc(S(=O)(=O)NC2CC2)cc1)Nc1ccccc1 (stereo unspecified) ? Its inhibition of aggregation was 17.8
